System: Saccharomyces cerevisiae
method_description: protein stability index of tFT-peptide fusion (C-terminal peptide) (PSI (0-1 scale)); higher = more stable (slower turnover)
reported_conditions: genetic background: wild type; temperature: 30 C
assay_readout: protein stability index
# respond with the number and nothing more

Here is how some sequences turned out for protein stability index.
QSKIKNKNIKIK    0.671
RVPDNYLKWSYI    0.719
HFVAPLSPRGSL    0.633
RFTPLSFCTDRV    0.658
KKKKRKKKKINI    0.611

May I ask what protein stability index has been recorded for `PPSPPPVRPHPP` ?
0.587

May I ask what protein stability index has been recorded for `KKKQNVKSNEVG` ?
0.651

May I ask what protein stability index has been recorded for `GVGVHAASGGEN` ?
0.723

May I ask what protein stability index has been recorded for `YFFVCYFSLLVF` ?
0.177

May I ask what protein stability index has been recorded for `LLHWGRWSRGRR` ?
0.694

May I ask what protein stability index has been recorded for `HTWAFYSETVCL` ?
0.694

May I ask what protein stability index has been recorded for `STTPKFNILASD` ?
0.646

----------
Test system: Saccharomyces cerevisiae
method_description: protein stability index of tFT-peptide fusion in wild type (PSI (0-1 scale)); higher = more stable (slower turnover)
reported_conditions: genetic background: wild type
Assign label 1 to entries whose protein stability index meets or exceeds 0.4; assign label 0 to the rest.

PSVAASFWRVVG    label 0
CLVSLFILLFFR    label 0
KKHKTGQKQKIN    label 0
RVSRLDAIYFRI    label 1
CTSCGYKFRQNN    label 1

Could you tell me if the measured protein stability index of `FSMRWTFRYWVNM` reaches 0.4 or more?
label 0

Could you tell me if the measured protein stability index of `HKHKKGQKQKIN` reaches 0.4 or more?
label 0

Could you tell me if the measured protein stability index of `FLYMCSVGCWFR` reaches 0.4 or more?
label 0

Could you tell me if the measured protein stability index of `PIKRNHLIKLLN` reaches 0.4 or more?
label 0

Could you tell me if the measured protein stability index of `LKIKRQKMNHQN` reaches 0.4 or more?
label 0

----------
Each record here notes measured protein stability index.
Test system: Saccharomyces cerevisiae
method_description: protein stability index of tFT-peptide fusion (C-terminal peptide) (PSI (0-1 scale)); higher = more stable (slower turnover)
reported_conditions: genetic background: wild type; temperature: 30 C
# respond with the number and nothing more

Here is how some sequences turned out for protein stability index.
CGGGGASGAIAR    0.668
VGGAVGAGGGGG    0.649

May I ask what protein stability index has been recorded for `PSPLLPAPRRPP` ?
0.684

May I ask what protein stability index has been recorded for `WWADRLVGVCIV` ?
0.491

May I ask what protein stability index has been recorded for `LHLGHAGQACPA` ?
0.628

May I ask what protein stability index has been recorded for `KNEGYHNVTMNL` ?
0.707

May I ask what protein stability index has been recorded for `PFSPDVSSVVFL` ?
0.667

----------
Each record here notes measured protein stability index.
System: Saccharomyces cerevisiae
method_description: protein stability index of tFT-peptide fusion (C-terminal peptide) (PSI (0-1 scale)); higher = more stable (slower turnover)
reported_conditions: genetic background: das1 deletion; temperature: 30 C
# respond with the number and nothing more

QNLLSAYRMNHK [AVO1 C-terminal 12 aa]    0.704
KQIDVFNGPKRV [MIG2 C-terminal 12 aa]    0.713
THKQYFWKKPAK [TOS4 C-terminal 12 aa]    0.707
LMGAALAAVIFL [FIT1 C-terminal 12 aa]    0.672
RQDNNHNGSSNG [MET32 C-terminal 12 aa]    0.694

May I ask what protein stability index has been recorded for QYDYELIQVQCS [PPN2 C-terminal 12 aa] ?
0.431

May I ask what protein stability index has been recorded for KRDKLKKNCVIM [YGL082W C-terminal 12 aa] ?
0.74

May I ask what protein stability index has been recorded for SVTAGYLPDLWR [YCH1 C-terminal 12 aa] ?
0.73

These measurements were taken from the supplement of paper PMC10724198.
